Biological target: T1, IL-18 receptor (IL-18Rαβ) on cells (UniProt Q13478 19-541; O95256 20-599, limits assumed)
T1 sequence (looked up) 1: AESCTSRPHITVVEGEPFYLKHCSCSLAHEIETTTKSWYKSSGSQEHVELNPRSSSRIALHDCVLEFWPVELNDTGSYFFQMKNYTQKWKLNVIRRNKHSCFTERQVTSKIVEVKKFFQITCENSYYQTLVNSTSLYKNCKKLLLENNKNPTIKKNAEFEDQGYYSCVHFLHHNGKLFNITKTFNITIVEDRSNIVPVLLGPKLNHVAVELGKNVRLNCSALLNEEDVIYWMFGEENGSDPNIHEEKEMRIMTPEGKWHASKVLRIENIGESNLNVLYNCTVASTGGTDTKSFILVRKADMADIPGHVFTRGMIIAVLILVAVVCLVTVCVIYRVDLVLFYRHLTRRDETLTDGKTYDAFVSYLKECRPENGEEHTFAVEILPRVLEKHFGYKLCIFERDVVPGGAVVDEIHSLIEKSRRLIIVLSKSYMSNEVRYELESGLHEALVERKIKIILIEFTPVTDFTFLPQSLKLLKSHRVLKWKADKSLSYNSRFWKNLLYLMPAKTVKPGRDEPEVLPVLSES
T1 sequence (looked up) 2: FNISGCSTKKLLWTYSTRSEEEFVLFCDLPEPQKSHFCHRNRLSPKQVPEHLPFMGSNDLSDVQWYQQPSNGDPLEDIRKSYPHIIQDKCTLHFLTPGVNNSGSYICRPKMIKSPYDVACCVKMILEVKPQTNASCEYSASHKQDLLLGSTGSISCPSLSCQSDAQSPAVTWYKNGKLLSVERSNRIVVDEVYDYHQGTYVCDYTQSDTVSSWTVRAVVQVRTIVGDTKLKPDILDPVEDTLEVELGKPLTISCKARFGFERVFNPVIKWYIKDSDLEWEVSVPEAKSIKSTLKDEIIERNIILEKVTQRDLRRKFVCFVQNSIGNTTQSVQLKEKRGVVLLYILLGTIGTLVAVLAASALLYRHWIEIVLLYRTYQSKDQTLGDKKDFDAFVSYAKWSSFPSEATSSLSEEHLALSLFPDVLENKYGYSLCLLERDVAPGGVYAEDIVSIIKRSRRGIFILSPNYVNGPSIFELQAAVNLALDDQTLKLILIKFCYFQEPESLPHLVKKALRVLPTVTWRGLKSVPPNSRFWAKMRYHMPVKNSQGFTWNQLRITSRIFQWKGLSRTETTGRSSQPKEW
Assay: cell-based or functional assay
# EC50 (pM), HEK-Blue IL-18R reporter assay listing for each entry below
Could you give the number and then its unit, please?

>>> measuredresult("C155 (V11I, C38A, D40A, K53A, C76A, C127A) (ligand) YFGKLESKLSIIRNLNDQVLFIDQGNRPLFEDMTDSDARANAPRTIFIISMYADSQPRGMAVTISVKCEKISTLSAENKIISFKEMNPPDNIKDTKSDIIFFQRSVPGHDNKMQFESSSYEGYFLAAEKERDLFKLILKKEDELGDRSIMFTVQNED")
"0.52 pM"
>>> measuredresult("C154 (V11I, E31A, D37A, C38A, K53A, C76A, C127A) (ligand) YFGKLESKLSIIRNLNDQVLFIDQGNRPLFADMTDSAARDNAPRTIFIISMYADSQPRGMAVTISVKCEKISTLSAENKIISFKEMNPPDNIKDTKSDIIFFQRSVPGHDNKMQFESSSYEGYFLAAEKERDLFKLILKKEDELGDRSIMFTVQNED")
"11.9 pM"

Please examine the following record next.
Q) Query (binder): C147 (V11I, C38A, K53A, D54A, C76A, C127A) (ligand) YFGKLESKLSIIRNLNDQVLFIDQGNRPLFEDMTDSDARDNAPRTIFIISMYAASQPRGMAVTISVKCEKISTLSAENKIISFKEMNPPDNIKDTKSDIIFFQRSVPGHDNKMQFESSSYEGYFLAAEKERDLFKLILKKEDELGDRSIMFTVQNED ; field requested: EC50 (pM), HEK-Blue IL-18R reporter assay
A) 1 pM
